Target: κ opioid receptor (Homo sapiens, UniProt P41145)
Sequence (P41145 whole entry): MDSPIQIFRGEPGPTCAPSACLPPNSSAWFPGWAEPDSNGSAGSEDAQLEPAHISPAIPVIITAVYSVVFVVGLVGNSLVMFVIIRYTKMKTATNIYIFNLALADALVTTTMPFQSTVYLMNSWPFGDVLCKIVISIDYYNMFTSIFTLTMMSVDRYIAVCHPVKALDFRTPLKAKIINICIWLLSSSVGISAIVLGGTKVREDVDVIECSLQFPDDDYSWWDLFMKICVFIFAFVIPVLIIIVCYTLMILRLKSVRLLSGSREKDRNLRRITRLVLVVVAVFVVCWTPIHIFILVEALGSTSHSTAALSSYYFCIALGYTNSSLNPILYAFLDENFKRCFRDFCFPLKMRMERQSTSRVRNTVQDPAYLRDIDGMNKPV
Assay: κ-opioid receptor [35S]GTPγS functional assay
Type: biochemical
Set-up: expressed in transfected cells
Settings: κ membrane protein (in-house); read-out: GTPγS κ EC50
Each entry below carries its reported EC50.
Number in nM, nothing else.

COc1ccc2c(c1)[C@@]1(CCCC(=O)N[C@@H](C)C(N)=O)CCN(CC3CC3)C(C2)[C@@H]1C: 1050
COC(=O)c1cccc(C(=O)NCC[C@]23CCN(CC4CC4)[C@H](Cc4ccc(OC)cc42)[C@@H]3C)c1: 15.3
COc1ccc2c(c1)[C@@]1(CCCCOCc3ccccc3)CCN(CC3CC3)C(C2)[C@@H]1C: 14.4
COc1ccc2c(c1)[C@@]1(CC(=O)N[C@@H](C)C(N)=O)CCN(CC3CC3)C(C2)[C@@H]1C: 5000
COc1ccc2c(c1)[C@@]1(CCCc3ccco3)CCN(CC3CC3)C(C2)C1C (stereo in doubt): 104
CC(C)CN1CC[C@@]2(CCCC(N)=O)c3cc(O)ccc3C[C@@H]1[C@@H]2C: 7.14

For the next question, use this compound.
Exercise: Data request, read-out EC50, for C[C@H]1[C@H]2Cc3ccc(O)cc3[C@@]1(CCNC(=O)CN)CCN2CC1CC1
Solution: 1.2
